# assay-target: gH/gL of HCMV strain Towne (on virus) (human cytomegalovirus (strain Towne), UniProt P17176 30-742)
# Sequence (P17176 30-742): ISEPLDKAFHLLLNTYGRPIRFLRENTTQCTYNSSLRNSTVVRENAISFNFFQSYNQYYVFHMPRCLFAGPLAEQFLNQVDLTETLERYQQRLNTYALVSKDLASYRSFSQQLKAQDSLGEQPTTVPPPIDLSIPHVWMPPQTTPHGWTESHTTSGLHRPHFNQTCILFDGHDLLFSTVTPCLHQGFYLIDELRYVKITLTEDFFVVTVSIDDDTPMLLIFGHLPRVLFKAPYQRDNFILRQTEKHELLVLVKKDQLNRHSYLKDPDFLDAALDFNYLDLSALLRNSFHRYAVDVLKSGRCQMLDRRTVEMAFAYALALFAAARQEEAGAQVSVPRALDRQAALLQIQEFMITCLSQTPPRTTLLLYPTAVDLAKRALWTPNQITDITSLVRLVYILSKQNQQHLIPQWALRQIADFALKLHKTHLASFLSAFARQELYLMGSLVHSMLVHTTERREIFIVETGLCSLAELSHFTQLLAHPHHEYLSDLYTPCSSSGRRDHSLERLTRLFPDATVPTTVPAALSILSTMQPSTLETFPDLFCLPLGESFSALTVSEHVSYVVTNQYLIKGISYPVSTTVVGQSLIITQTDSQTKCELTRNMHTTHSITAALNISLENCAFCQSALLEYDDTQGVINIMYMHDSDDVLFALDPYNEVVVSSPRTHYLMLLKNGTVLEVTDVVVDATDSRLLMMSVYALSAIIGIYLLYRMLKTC
# measurement-description: cell-based or functional assay
Some binders, each annotated with its measured IC50(MRC5/NHDF) Towne, virus neutralization.
observation-type: IC50(MRC5/NHDF) Towne, virus neutralization

INSERT INTO measurements (binder, result) VALUES
  ('13G1 (antibody, V domains shown, also called 13G1 (ms); anti-gH mAb 13G1) VH: QVTLKESGPVLVKPTETLTLTCTVSGFSLYNARMGVTWIRQPPGKALEWLAHIFSNDERSYTSSLKNRLTISKDTSKSQVVLTMTNMDPVDTATYYCARIDYSNYIGNWFDPWGQGTLVTVSS VL: DIQMTQSPSSLSASVGDRVTITCRASQSISNYLNWYQQKPGKAPKLLIYAASSLQGGVPSRFSGSGSGTDFTLTISSLQPEDFTTYYCQQSYSTPFTFGGGTKVEIK', '1.09 µg/mL'),
  ('9A12 (antibody, V domains shown, also called 9A12 (ms); anti-gH mAb 9A12) VH: EVQLVESGGVLVQPGGSLRLSCAASGFTFSSHEMNWVRQAPGKGLEWISYISSTGSTIYDADSVKGRFTISRDNAKNSLYLQMNSLRAEDTAVYYCARSSGWYRNYSYGMDVWGQGTTVTVSS VL: DIQMAQSPSSLSASVGDRVTITCRASQGIYNYLAWFQQKPGKAPKSLIYAASSLQTGVPSKFSGSGSGTDFTLTISNLQPEDFATYYCQQYNSFPRTFGQGTKVEIK', '2.53 µg/mL'),
  ('15G11 (antibody, V domains shown, also called 15G11 (ms); anti-gH mAb 15G11) VH: QVQLQESGPGLVKPSQTLSLTCTVSGGSISSGYYYWNWIRQHPGKGLECIGYIYYSGTTYYNPSLKSRLFISVDTSKNQFSLKLRSVTAADTAVYYCARGGLGAFDIWGQGTMVTVSS VL: EIVLTQSPGTLSLSPGERATLSCRASQSVSSSYLAWYQQKPGQAPRLLIYGASSRAPGIPDRFSGTGSGTDFTLTISRLEPEDFAVYYCQQYGISPLTFGGGTKVEIK', '0.87 µg/mL');

FYI, the data here is from patent US20250129140A1.
